pKi: −log10 of the molar value.
REPORTED ENDPOINT: pKi

// map CCCCCn1cc(C(=O)NC23CC4CC(CC(C4)C2)C3)c(=O)n2nc(-c3ccc(Cl)cc3)cc12 to recorded pKi (system: Cannabinoid receptor 1 (Rattus norvegicus))
Sequence (P20272 whole entry): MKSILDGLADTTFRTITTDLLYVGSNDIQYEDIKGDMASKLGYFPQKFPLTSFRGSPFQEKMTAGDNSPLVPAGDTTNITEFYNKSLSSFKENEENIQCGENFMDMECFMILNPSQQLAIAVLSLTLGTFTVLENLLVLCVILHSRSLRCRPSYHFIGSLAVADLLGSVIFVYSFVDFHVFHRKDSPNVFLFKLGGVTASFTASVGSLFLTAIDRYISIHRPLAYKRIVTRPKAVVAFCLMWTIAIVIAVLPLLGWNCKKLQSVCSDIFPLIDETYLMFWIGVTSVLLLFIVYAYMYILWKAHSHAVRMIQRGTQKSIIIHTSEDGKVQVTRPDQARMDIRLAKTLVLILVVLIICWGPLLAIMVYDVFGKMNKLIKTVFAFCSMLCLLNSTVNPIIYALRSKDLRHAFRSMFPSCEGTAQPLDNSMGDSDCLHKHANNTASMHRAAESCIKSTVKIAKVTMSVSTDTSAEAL
< 5.00

// map CCCCCn1cc(C(=O)NC23CC4CC(CC(C4)C2)C3)c(=O)n2nc(-c3cc(C)cs3)cc12 to recorded pKi (system: Cannabinoid receptor 1 (Rattus norvegicus))
< 5.00

// map CCCCCn1cc(C(=O)NC23CC4CC(CC(C4)C2)C3)c(=O)n2nc(C)c(-c3ccc(OC)cc3)c12 to recorded pKi (system: Cannabinoid receptor 1 (Rattus norvegicus))
< 5.00

// map CCCCCn1cc(C(=O)NC2CCCCC2)c(=O)n2nc(-c3ccc(Cl)cc3Cl)cc12 to recorded pKi (system: Cannabinoid receptor 1 (Rattus norvegicus))
< 5.00

// map CCCCCn1cc(C(=O)NC23CC4CC(CC(C4)C2)C3)c(=O)n2nc(C)c(Br)c12 to recorded pKi (system: Cannabinoid receptor 1 (Rattus norvegicus))
< 5.00

// map CCCCCn1cc(C(=O)NC2CCCCCC2)c(=O)n2nc(-c3ccc(Cl)cc3)cc12 to recorded pKi (system: Cannabinoid receptor 1 (Rattus norvegicus))
< 5.00

// map CCCCCn1cc(C(=O)NC2CCCCC2)c(=O)n2nc(CC)cc12 to recorded pKi (system: Cannabinoid receptor 1 (Rattus norvegicus))
6.32

// map CCCCCn1cc(C(=O)NC2CCCCC2)c(=O)n2nc(-c3ccccc3)cc12 to recorded pKi (system: Cannabinoid receptor 1 (Rattus norvegicus))
6.12

// map CCCCCn1cc(C(=O)NC2CCCCCC2)c(=O)n2nc(-c3ccco3)cc12 to recorded pKi (system: Cannabinoid receptor 1 (Rattus norvegicus))
< 5.00

* * *

Please consider the recorded Ki for UniProtKB P20272 in what follows.

May I ask what Ki has been recorded for CCCCCn1cc(C(=O)NC2CCCCCC2)c(=O)n2nc(-c3ccccc3Cl)cc12 ?
> 10 µM

May I ask what Ki has been recorded for CCCCCn1cc(C(=O)NC23CC4CC(CC(C4)C2)C3)c(=O)n2nc(-c3ccccc3Cl)cc12 ?
> 10 µM

May I ask what Ki has been recorded for CCCCCn1cc(C(=O)NC2CCCCC2)c(=O)n2nc(C(C)(C)C)cc12 ?
0.72 µM

May I ask what Ki has been recorded for CCCCCn1cc(C(=O)NC2CCCCCC2)c(=O)n2nc(-c3ccc(Cl)cc3Cl)cc12 ?
> 10 µM

May I ask what Ki has been recorded for CCCCCn1cc(C(=O)NC2CCCCC2)c(=O)n2nc(-c3ccccc3C)cc12 ?
> 10 µM

May I ask what Ki has been recorded for CCCCCn1cc(C(=O)NC23CC4CC(CC(C4)C2)C3)c(=O)n2nc(-c3cccs3)cc12 ?
> 10 µM

May I ask what Ki has been recorded for CCCCCn1cc(C(=O)NC2CCCCCC2)c(=O)n2nc(C)cc12 ?
0.642 µM

May I ask what Ki has been recorded for CCCCCn1cc(C(=O)NC23CC4CC(CC(C4)C2)C3)c(=O)n2nc(-c3ccccc3C)cc12 ?
> 10 µM

May I ask what Ki has been recorded for CCCCCn1cc(C(=O)NCc2ccccc2)c(=O)n2nc(C)cc12 ?
3.69 µM
